# System: XF498
# experimentSummary: NCI tumour cell line growth inhibition, 48 h
Active and inactive are the calls of the source. No stated cut-off is given here; in the data, active = GI50 up to about 1.1 µM and inactive = higher.
measurementName: GI50

Illustrative cases are given below, each with its answer.
>>> testvalue("CCOC(=O)/C(C)=C(/O)C(=O)OCC")
"> 100 µM (inactive)"
>>> testvalue("CCN1CCCC(NCc2c3ccccc3c(CNC3CCCN(CC)C3)c3ccccc23)C1 (stereo unspecified)")
"20.5 µM (inactive)"
>>> testvalue("Clc1ccc(C2=Nc3ccccc3SC(c3ccc(Cl)c(Cl)c3)C2)c(Cl)c1 (stereo unspecified)")
"12.4 µM (inactive)"
>>> testvalue("Cc1ccc(C2COc3cc(O)c(O)cc3C2)cc1 (stereo unspecified)")
"9.12 µM (inactive)"

For each of the molecules below, state GI50.
1. Cc1ccc(NC(=O)CC/C(CC(=O)C(C)(C)C)=N\NC(=O)C[n+]2ccccc2)cc1C
2. NC1=C(Cl)C(=O)c2ccccc2C1=O

**Result**
1. 87.7 µM (inactive)
2. 11.2 µM (inactive)

----------
# Test system: SF-295
# experimentSummary: NCI tumour cell line growth inhibition, 48 h
Active and inactive are the calls of the source. No stated cut-off is given here; in the data, active = GI50 up to about 1.1 µM and inactive = higher.
Would you mind answering with one of these outcomes? YES = active, NO = inactive

Look over these answered cases.
>>> category("COc1ccc2[nH]c(C(O)(Cc3cccnc3)Cc3cccnc3)cc2c1")
"NO"
>>> category("O=NN(CCCl)C(=O)N[C@H]1CC[C@@H](O)CC1")
"NO"
>>> category("C=C1C(=O)OC2/C=C(\\CO)CC/C=C(\\CO)CC(OC(=O)C(C)C)C12 (stereo not given)")
"NO"
>>> category("COc1cc(-c2coc3c(OC)c(OC4OC(COC5OC(C)C(O)C(O)C5O)C(O)C(O)C4O)c(OC)c(O)c3c2=O)cc(C)c1O (stereo not given)")
"NO"
>>> category("CC1(C)C(=O)C2(OS(=O)(=O)C(F)(F)F)CCC1C2 (stereo not given)")
"NO"

**Query** Test call for this compound, please: C[C@H]1C(=O)CC[C@]2(C)CCC(C(C)(C)O)CC12O (stereo not given in full)
**Result** NO

**Query** Test call for this compound, please: "Nc1ccccc1.O=C(O)C(C(F)(F)F)C(F)(F)F"
**Result** NO

**Query** Test call for this compound, please: CC(=O)c1c2c(cc3c1CC1(C3)Cc3cc4c(c(C(=O)O)c3C1)CCCC4)CCCC2.CC(N)c1ccccc1 (stereo not given)
**Result** NO

----------
# System: RXF 393
# experimentSummary: NCI tumour cell line growth inhibition, 48 h
Calls of active or inactive are those of the source. Cut-off read from the data, not from the text of the source: active = GI50 up to about 1.1 µM and inactive = higher.
Would you mind answering with one of these outcomes? true (1) for active, false (0) for inactive

Look over these answered cases.
>>> category("N=C(N)NNC(=O)C(=O)O")
"false (0)"
>>> category("NCCCc1ccc2oc3ccccc3c2c1")
"false (0)"

**Query** Test call for this compound, please: CCC(C)OC(=O)C1C2CCC(O2)C1C(=O)O (stereo not drawn)
**Result** false (0)

**Query** Test call for this compound, please: "NC(=O)c1cc2ccccc2o/c1=N/O"
**Result** false (0)

**Query** Test call for this compound, please: CC(O)C1(O)C(O)CC(OC2c3cc4c(c(O)c3[C@@H]3C[C@@]2(C)OC32C=c3cc[nH]c3=N2)C(=O)c2cccc(O)c2C4=O)OC1C (stereo partly drawn)
**Result** true (1)

**Query** Test call for this compound, please: "COC(=O)c1nc(NC#N)nc(O)c1C"
**Result** false (0)

**Query** Test call for this compound, please: COc1ccc(CC2OC3(CCCCC3)CC3CCCCN32)cc1 (stereo not drawn)
**Result** false (0)

**Query** Test call for this compound, please: "c1ccc(CN2C3C4N(Cc5ccccc5)C2C2N(Cc5ccccc5)C(C(N2Cc2ccccc2)N4Cc2ccccc2)N3Cc2ccccc2)cc1"
**Result** false (0)

**Query** Test call for this compound, please: C=C1C(=O)CC2C1CC(=O)/C(C)=C/CCC(C)(O)C2O (stereo not drawn)
**Result** false (0)

----------
# System: Hs-578T
# experimentSummary: NCI tumour cell line growth inhibition, 48 h
Structures can show the parent of a compound that is named as a salt. Active and inactive are the calls of the source. Cut-off read from the data, not from the text of the source: active = GI50 up to about 1.1 µM and inactive = higher.
measurementName: GI50

Illustrative cases are given below, each with its answer.
>>> testvalue("CC(C(O)Cc1ccccc1)N(C)/N=N/c1ccc([N+](=O)[O-])cc1 (centres undefined)")
"24 µM (inactive)"
>>> testvalue("N[C@@H](Cc1ccc(N(CCCl)CCCl)cc1)C(=O)O [MELPHALAN HYDROCHLORIDE]")
"51.8 µM (inactive)"
>>> testvalue("Oc1c(Cl)cc2cc1-c1cc(cc(Cl)c1O)CCc1c(cc(Cl)c(O)c1Cl)-c1cc(Cl)c(c(Cl)c1O)/C=C\\2")
"11.1 µM (inactive)"

Now for a further compound.
**Query** // returns reported GI50 for input CC(=O)c1c2c(cc3c1CC1(C3)Cc3cc4c(c(C(=O)O)c3C1)CCCC4)CCCC2.CC(N)c1ccccc1 (centres undefined)
**Result** 36.6 µM (inactive)

----------
# Test system: UACC-62
# experimentSummary: NCI tumour cell line growth inhibition, 48 h
The source made the active and inactive calls. No stated cut-off is given here; in the data, active = GI50 up to about 1.1 µM and inactive = higher.
measurementName: GI50

Illustrative cases are given below, each with its answer.
>>> testvalue("O=c1c(-c2ccccc2Cl)coc2cc(F)ccc12")
"18.2 µM (inactive)"
>>> testvalue("O=P1(c2ccccc2)c2ccccc2-c2ccccc21")
"82.2 µM (inactive)"
>>> testvalue("C[C@H](O)CCC(=O)c1ccoc1")
"> 100 µM (inactive)"
>>> testvalue("Nc1ccc(Nc2cc(O)nc(O)n2)cc1")
"> 100 µM (inactive)"

Now for a further molecule.
**Query** // returns reported GI50 for input "COC(=O)c1nc(NC#N)nc(O)c1C"
**Result** > 61.1 µM (inactive)

----------
# Tested on: UACC-257
# experimentSummary: NCI tumour cell line growth inhibition, 48 h
Calls of active or inactive are those of the source. Cut-off read from the data, not from the text of the source: active = GI50 up to about 1.1 µM and inactive = higher.
Exercise: state measured GI50 for each of the compounds provided.

For each of the compounds below, state GI50.
1. CCOC(=O)c1nc2cc(C(F)(F)F)ccc2nc1Oc1ccc(C#N)cc1
2. C/C(=N\Nc1nc2ccccc2s1)c1ccc2ccccc2n1
3. COc1ccc(C(=O)/C=C/c2ccc(OCC(=N)N)cc2)cc1OC

**Result**
["> 100 µM (inactive)", "> 100 µM (inactive)", "6.79 µM (inactive)"]

----------
# Tested on: M19-MEL
# experimentSummary: NCI tumour cell line growth inhibition, 48 h
The source made the active and inactive calls. Cut-off read from the data, not from the text of the source: active = GI50 up to about 1.1 µM and inactive = higher.
measurementName: GI50

Illustrative cases are given below, each with its answer.
>>> testvalue("O=C(c1ccccc1)C1S(=O)(=O)OCCOS1(=O)=O")
"> 100 µM (inactive)"
>>> testvalue("CN(C)C(=S)/N=c1\\ss/c(=N\\C(=S)N(C)C)n1Cc1ccco1")
"> 100 µM (inactive)"
>>> testvalue("COC(=O)N/N=C(\\C(=O)Nc1cccc([N+](=O)[O-])c1)c1nc2ccc([N+](=O)[O-])cc2nc1O")
"74.3 µM (inactive)"
>>> testvalue("CCOC(=O)c1[nH]c2c(OC)n[n+]([O-])cc2c1[N+](=O)[O-]")
"24.8 µM (inactive)"
>>> testvalue("COc1cc(C=C2C(=O)NC(=O)NC2=O)cc(OC)c1OC")
"> 100 µM (inactive)"

For each of the compounds below, state GI50.
1. CC1=C2C(=O)[C@H]3[C@@H](CC=C4C[C@@H](O)CC[C@@]43C)[C@@H]2CC[C@]12O[C@@H]1C[C@H](C)CN[C@H]1[C@H]2C [JERVINE]
2. c1ccc2c(c1)N=C(c1cccc3ccccc13)CC(c1cccc3ccccc13)S2 (stereo unspecified)
3. CC1(C)C(=NNC(=O)C[N+](C)(C)C)C(C)(C)C1=NNC(=O)C[N+](C)(C)C
4. CC(=O)OC(C[C@H](C)[C@@H]1CC[C@]2(C)C3=CCC4C(C)(C)C(=O)CC[C@]4(C)C3CCC12C)C1OC1(C)C (stereo partly specified)
5. COc1ccc(C(O)/C(=C/n2ccnc2)c2ccccc2)cc1OC (stereo unspecified)
6. CCOc1ccc(NC(=O)C2=C(C)NC(C)=C(C(=O)Nc3ccc(OCC)cc3)C2c2ccc([N+](=O)[O-])cc2)cc1

**Result**
["29.4 µM (inactive)", "5.53 µM (inactive)", "> 100 µM (inactive)", "31.2 µM (inactive)", "> 100 µM (inactive)", "26.2 µM (inactive)"]

----------
# Tested on: HOP-62
# experimentSummary: NCI tumour cell line growth inhibition, 48 h
Structures can show the parent of a compound that is named as a salt. Activity calls are given as the source filed them. Rule as the data show it: active = GI50 up to about 1.1 µM and inactive = higher.
measurementName: GI50

Illustrative cases are given below, each with its answer.
>>> testvalue("CCCCc1c2c(c(C)c3c1C(=O)OC3)Oc1ccccc1O2")
"1.23 µM (inactive)"
>>> testvalue("O=C(O)CN(CC(=O)O)c1ccccc1")
"> 100 µM (inactive)"
>>> testvalue("CC(=O)Oc1ccc2cc(Oc3ccccc3)c(=O)oc2c1")
"89.1 µM (inactive)"
>>> testvalue("Oc1c(Cl)cc2cc1-c1cc(cc(Cl)c1O)CCc1c(cc(Cl)c(O)c1Cl)-c1cc(Cl)c(c(Cl)c1O)/C=C\\2")
"7.74 µM (inactive)"
>>> testvalue("CC1(C)C(=O)/C=C\\C(=O)C(C)(C)C(=O)/C=C\\C(=O)C(C)(C)C2=CC=C(O2)C(C)(C)C(=O)/C=C\\C1=O")
"24.3 µM (inactive)"

For each of the molecules below, state GI50.
1. CC(C)(C)CC(C)(C)NCC(O)COc1ccc(C(C)(C)c2ccc(OCC(O)CNC(C)(C)CC(C)(C)C)cc2)cc1 (centres undefined)
2. CCCCN1CN2C(=O)C(C(=O)OCC)C(=O)c3sc4nc(SC)nc1c4c32 (centres undefined)
3. N[C@@H](Cc1ccc(N(CCCl)CCCl)cc1)C(=O)O [MELPHALAN HYDROCHLORIDE]
4. CCN(CC)CCn1nc(N)c2nc3cc(Cl)ccc3nc21

**Result**
["1.77 µM (inactive)", "15.7 µM (inactive)", "15.4 µM (inactive)", "> 100 µM (inactive)"]
